target or test system: CCN2-EGFR (Homo sapiens) (UniProt P00533+P29279)
Sequence (P00533 whole entry, looked up, the tested form may be a part): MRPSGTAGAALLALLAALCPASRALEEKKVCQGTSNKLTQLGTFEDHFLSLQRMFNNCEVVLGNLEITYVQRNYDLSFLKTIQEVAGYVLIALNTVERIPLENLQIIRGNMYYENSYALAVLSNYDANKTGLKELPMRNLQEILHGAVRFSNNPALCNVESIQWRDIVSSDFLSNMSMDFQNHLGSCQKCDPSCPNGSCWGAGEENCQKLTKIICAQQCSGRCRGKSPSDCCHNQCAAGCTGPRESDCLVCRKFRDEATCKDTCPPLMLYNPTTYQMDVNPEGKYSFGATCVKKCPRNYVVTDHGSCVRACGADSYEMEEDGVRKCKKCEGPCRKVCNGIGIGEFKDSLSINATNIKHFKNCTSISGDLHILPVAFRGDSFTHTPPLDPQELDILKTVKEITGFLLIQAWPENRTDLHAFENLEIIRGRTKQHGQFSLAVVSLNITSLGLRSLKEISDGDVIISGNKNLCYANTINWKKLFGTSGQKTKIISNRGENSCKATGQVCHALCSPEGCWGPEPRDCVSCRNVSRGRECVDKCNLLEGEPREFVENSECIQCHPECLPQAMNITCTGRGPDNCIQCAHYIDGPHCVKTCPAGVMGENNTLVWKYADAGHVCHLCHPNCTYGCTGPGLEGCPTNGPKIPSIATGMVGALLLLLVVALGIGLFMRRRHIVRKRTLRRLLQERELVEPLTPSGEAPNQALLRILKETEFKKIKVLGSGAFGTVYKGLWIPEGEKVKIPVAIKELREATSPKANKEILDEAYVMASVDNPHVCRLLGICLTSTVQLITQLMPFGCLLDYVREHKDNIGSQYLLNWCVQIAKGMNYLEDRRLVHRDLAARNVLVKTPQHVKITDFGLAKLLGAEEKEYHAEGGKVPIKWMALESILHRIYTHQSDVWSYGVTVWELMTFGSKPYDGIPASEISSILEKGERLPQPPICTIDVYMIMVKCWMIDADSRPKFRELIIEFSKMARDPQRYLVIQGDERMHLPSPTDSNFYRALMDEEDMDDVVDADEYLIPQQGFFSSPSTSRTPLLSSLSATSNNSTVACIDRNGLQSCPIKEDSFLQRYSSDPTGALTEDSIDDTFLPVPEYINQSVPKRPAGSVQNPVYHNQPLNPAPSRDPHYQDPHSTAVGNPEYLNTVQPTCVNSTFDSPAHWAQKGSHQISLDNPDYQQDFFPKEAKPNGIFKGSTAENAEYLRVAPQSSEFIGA
Sequence (P29279 whole entry, looked up, the tested form may be a part): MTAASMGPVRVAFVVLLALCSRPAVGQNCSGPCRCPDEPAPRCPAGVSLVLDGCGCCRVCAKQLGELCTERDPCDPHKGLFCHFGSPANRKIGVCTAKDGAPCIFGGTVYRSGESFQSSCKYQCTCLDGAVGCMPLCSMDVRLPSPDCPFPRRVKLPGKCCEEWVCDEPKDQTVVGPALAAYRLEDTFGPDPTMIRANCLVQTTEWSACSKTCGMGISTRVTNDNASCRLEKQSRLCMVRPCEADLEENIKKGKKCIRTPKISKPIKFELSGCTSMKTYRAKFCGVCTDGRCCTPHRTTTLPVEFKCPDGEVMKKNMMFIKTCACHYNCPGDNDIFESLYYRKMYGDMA
assay details: Inhibition of His-tagged full length human CCN2 FL domain/human Fc-tagged EGFR protein-protein interaction using TMB as chromogenic substrate at 100 uM incubated for 140 mins by microplate reader assay relative to control
Peptide text beside a SMILES is read from it.
value type: inhibition (%)
Form entry: value (%) — number only.

Look over these answered cases.
CC(C)C[C@H](NC(=O)[C@@H](N)CC(C)C)C(=O)N[C@@H](C)C(=O)N[C@@H](CC(=O)O)C(=O)N[C@H](C(=O)N[C@@H](C)C(=O)N[C@@H](Cc1c[nH]cn1)C(=O)N[C@@H](Cc1c[nH]cn1)C(=O)N[C@@H](CCCNC(=N)N)C(=O)N1CCC[C@H]1C(=O)N[C@@H](Cc1c[nH]c2ccccc12)C(=O)N[C@H](C(N)=O)[C@@H](C)O)[C@@H](C)O (H-LLADTAHHRPWT-NH2)
36.5
C[C@@H](O)[C@H](N)C(=O)N[C@@H](Cc1c[nH]cn1)C(=O)N[C@@H](Cc1c[nH]cn1)C(=O)N[C@@H](CCC(N)=O)C(=O)N1CCC[C@H]1C(=O)N[C@@H](Cc1c[nH]c2ccccc12)C(=O)N[C@H](C(N)=O)[C@@H](C)O (H-THHQPWT-NH2)
2.1
C[C@H](N)C(=O)N[C@@H](CC(=O)O)C(=O)N[C@H](C(=O)N[C@H](C(=O)N[C@@H](Cc1c[nH]cn1)C(=O)N[C@@H](Cc1c[nH]cn1)C(=O)N[C@@H](CCCNC(=N)N)C(=O)N1CCC[C@H]1C(=O)N[C@@H](Cc1c[nH]c2ccccc12)C(=O)N[C@H](C(N)=O)[C@@H](C)O)[C@@H](C)O)[C@@H](C)O (H-ADTTHHRPWT-NH2)
70.6
C[C@@H](O)[C@H](N)C(=O)N[C@@H](CCC(=O)O)C(=O)N[C@@H](Cc1c[nH]cn1)C(=O)N[C@@H](CCCNC(=N)N)C(=O)N1CCC[C@H]1C(=O)N[C@@H](Cc1c[nH]c2ccccc12)C(=O)N[C@H](C(N)=O)[C@@H](C)O (H-TEHRPWT-NH2)
12.5
C[C@@H](O)[C@H](N)C(=O)N[C@@H](Cc1c[nH]cn1)C(=O)N[C@@H](CCC(N)=O)C(=O)N[C@@H](CCCNC(=N)N)C(=O)N1CCC[C@H]1C(=O)N[C@@H](Cc1c[nH]c2ccccc12)C(=O)N[C@H](C(N)=O)[C@@H](C)O (H-THQRPWT-NH2)
5.1

Consider the additional molecule presented here.
Query CC(C)C[C@H](N)C(=O)N[C@@H](C)C(=O)N[C@@H](C)C(=O)N[C@@H](CC(=O)O)C(=O)N[C@H](C(=O)N[C@H](C(=O)N[C@@H](Cc1c[nH]cn1)C(=O)N[C@@H](Cc1c[nH]cn1)C(=O)N[C@@H](CCCNC(=N)N)C(=O)N1CCC[C@H]1C(=O)N[C@@H](Cc1c[nH]c2ccccc12)C(=O)N[C@H](C(N)=O)[C@@H](C)O)[C@@H](C)O)[C@@H](C)O (H-LAADTTHHRPWT-NH2) on CCN2-EGFR (Homo sapiens) (UniProt P00533+P29279); inhibition returned: 62.8
